Biological target: Anti-CD28 scFv (VH - linker 1 - VL) (biotinylated (site not stated))
Sequence (scFv, as listed by the source): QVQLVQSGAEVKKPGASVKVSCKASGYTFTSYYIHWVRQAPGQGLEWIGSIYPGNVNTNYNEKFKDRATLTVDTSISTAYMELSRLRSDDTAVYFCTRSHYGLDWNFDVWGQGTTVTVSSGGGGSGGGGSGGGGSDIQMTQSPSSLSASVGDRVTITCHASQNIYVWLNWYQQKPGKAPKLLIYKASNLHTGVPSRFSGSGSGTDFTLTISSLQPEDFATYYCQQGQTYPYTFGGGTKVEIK
Experiment: phage binding ELISA on captured anti-CD28 scFv; wells pre-incubated with soluble CD28 protein (competitor)
Where no end group is shown, it is not given here.
parameter: CD28 scFv signal in presence of CD28

{"binder": "MDWCPMHLWNKCFN (peptide, not shown: large carriers, cysteine pairing not given here; also: displayed on phage by fusion to pIII, linker and pIII sequence not given here) [Phage-53 clonal phage peptide]", "test value": 0.122}
{"binder": "MDWCPRPLWHECFS (peptide, not shown: large carriers) [Phage-45 clonal phage peptide]", "test value": 0.121}
{"binder": "MDWCPRALWAECFN (peptide, not shown: large carriers) [Phage-64 clonal phage peptide]", "test value": 0.339}
{"binder": "MAWCPRDKWSECFS (peptide, not shown: large carriers) [Phage-41 clonal phage peptide]", "test value": 0.147}
{"binder": "MVSCPTTMWNRCFN (peptide, not shown: large carriers) [Phage-61 clonal phage peptide]", "test value": 0.072}
{"binder": "MHWCPIDRWADCFN (peptide, not shown: large carriers) [Phage-58 clonal phage peptide]", "test value": 0.077}
